test: Determination of the log P values (formic acid method); conditions: reverse-phase C18 HPLC column, pH 3.4, logP (HCOOH), intermediates tables; HPLC reverse-phase C18, acidic range pH 3.4, 55° C.
Property Label: chromatographic logP
Reply briefly: the number, and no unit.

Some compounds with known chromatographic logP results, for comparison:
>  <Smiles Code>
CC(=O)NS(=O)(=O)c1cccc(Br)n1

>  <chromatographic logP>
0.95

$$$$
>  <Smiles Code>
c1ncc(-c2nccs2)cn1

>  <chromatographic logP>
0.69

$$$$
>  <Smiles Code>
CS(=O)(=O)NC(=O)c1cccc(Cl)n1

>  <chromatographic logP>
1.15

$$$$
>  <Smiles Code>
NS(=O)(=O)c1cccc(-c2cnn(-c3cccnc3)c2)n1

>  <chromatographic logP>
0.99

$$$$
>  <Smiles Code>
CN(C)S(=O)(=O)NC(=O)c1cccc(Br)n1

>  <chromatographic logP>
1.82

$$$$

Record "Clc1cncc(-c2nccs2)c1" . Reported chromatographic logP: 1.94
